The following sequences are listed with their measured Screen values.
# SYSTEM: c-Abl kinase domain (Mus musculus, UniProt P00520)
# PROTOCOL_SUMMARY: pTyr-Var library bacterial peptide display kinase screen (enrichment scores);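 further: log2 fold change in enrichment of variant over reference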
# Type: biochemical
# CONDITION_CONTEXT: sheet "Abl"; effect of variant peptide relative to its reference peptide in pTyr-Var library screen (enrichment)
// no unit string in output, number only

# SEQUENCE_INPUT, Screen
rows = [
    ("RRIFSYRGHLW [VHL_Y112_H110Y_YF]", -4.34),
    ("TDGIAYEFRVT [TTN_Y22256_I22261T]", -3.408),
    ("FSGQVYRQRRK [TH_Y230_D227G]", 0.751),
]

Below: the item to evaluate.
Query (sequence): PLDEEYFTLQI [TP53_Y327_G325E] ; field requested: Screen
-1.267

----------
# Tested on: EPHB1 kinase domain
# PROTOCOL_SUMMARY: pTyr-Var library bacterial peptide display kinase screen (enrichment scores);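 further: log2 fold change in enrichment of variant over reference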
# Assay type: biochemical, human
# CONDITION_CONTEXT: sheet EPHB1; effect of the variant peptide relative to its reference peptide in the pTyr-Var library screen (enrichment scores)
READOUT: Screen

The cases that follow already have their Screen on record.
# SEQUENCE_INPUT, Screen
records = [
    ("FFPANYVAPMT [GRAP2_Y324_L319F]", 0.4698),
    ("DSFATYFRWVL [H2BW1_Y84_R87W]", 1.664),
]

Query (sequence): ITNLLYHVVSW [GBA_Y412_G416S] ; field requested: Screen
0.5526

Query (sequence): FEKFLYFLPAS [DYNC2H1_Y346_H341Y_YF] ; field requested: Screen
-0.7762

Query (sequence): DSNLIYSQIWS [FCRL3_Y662_P660L] ; field requested: Screen
-0.4048

Query (sequence): SCPANYFAFKI [FAM3D_Y65_P60S] ; field requested: Screen
-0.6297

Query (sequence): GNLLIYTDFGK [HGD_Y166_E168D] ; field requested: Screen
0.7596

Query (sequence): HGEAFYSEVKA [PAK5_Y182_P187A_YF] ; field requested: Screen
-0.6457

----------
# Test system: EPHB1 kinase domain
# PROTOCOL_SUMMARY: pTyr-Var library bacterial peptide display kinase screen (enrichment scores);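 further: log2 fold change in enrichment of variant over reference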
# Type: biochemical, human
# CONDITION_CONTEXT: sheet EPHB1; effect of the variant peptide relative to its reference peptide in the pTyr-Var library screen (enrichment scores)
READOUT: Screen
// no unit string in output, number only

The cases that follow already have their Screen on record.
# SEQUENCE_INPUT, MEASURED_RESULT
measured = [
    ("FADGVYLALEE [DUOX2_Y70_Q71L_YF]", -0.7119),
    ("FVFSFYHAFSG [ACTN4_Y265_S262F_YF]", -0.8684),
    ("SSWPDYVRPLP [HSPB1_Y54_G53D]", 1.698),
    ("NIEPIYLNMLL [ATR_Y317_V316I]", 0.9992),
    ("LENSTYQFICV [CRB1_Y760_R764C_YF]", -0.5365),
    ("MSRNLYSGDCF [DDR2_Y736_Y740C_YF]", -1.85),
]

Query (sequence): RKVLVYDKLNV [ROR2_Y624_N620K] ; field requested: Screen
-0.6022

Query (sequence): LRWREYQRQDF [PRKRIP1_Y90_R87W_YF] ; field requested: Screen
1.398

Query (sequence): RGDCMYASLLG [AR_Y269_P271S] ; field requested: Screen
-1.7

Query (sequence): LPEENYQVLCF [ARHGAP1_Y365_R369C] ; field requested: Screen
1.32
